TARGET UNDER TEST: Amine oxidase [flavin-containing] B (Homo sapiens, UniProt P27338)
Sequence (P27338 whole entry): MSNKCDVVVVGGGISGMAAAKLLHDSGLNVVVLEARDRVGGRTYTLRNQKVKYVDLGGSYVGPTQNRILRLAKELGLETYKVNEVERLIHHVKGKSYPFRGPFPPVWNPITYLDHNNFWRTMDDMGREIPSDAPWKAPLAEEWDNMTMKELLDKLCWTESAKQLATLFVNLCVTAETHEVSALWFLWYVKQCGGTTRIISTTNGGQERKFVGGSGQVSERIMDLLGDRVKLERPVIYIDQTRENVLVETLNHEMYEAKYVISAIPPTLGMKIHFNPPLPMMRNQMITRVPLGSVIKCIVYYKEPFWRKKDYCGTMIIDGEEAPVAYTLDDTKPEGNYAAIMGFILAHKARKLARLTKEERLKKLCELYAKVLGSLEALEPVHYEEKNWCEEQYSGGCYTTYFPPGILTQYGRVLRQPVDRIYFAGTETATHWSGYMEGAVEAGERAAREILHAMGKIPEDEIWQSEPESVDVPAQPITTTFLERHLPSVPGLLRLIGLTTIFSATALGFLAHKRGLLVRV
ASSAY INFO: Inhibition of MAO-B (unknown origin)

{"MOLECULE": "NS(=O)(=O)Cc1noc2ccccc12 [ZONISAMIDE]", "TARGET UNDER TEST": "Amine oxidase [flavin-containing] B (Homo sapiens, UniProt P27338)", "Ki": "30.8 µM"}

====

TARGET UNDER TEST: UniProt P21397
Sequence (P21397 whole entry): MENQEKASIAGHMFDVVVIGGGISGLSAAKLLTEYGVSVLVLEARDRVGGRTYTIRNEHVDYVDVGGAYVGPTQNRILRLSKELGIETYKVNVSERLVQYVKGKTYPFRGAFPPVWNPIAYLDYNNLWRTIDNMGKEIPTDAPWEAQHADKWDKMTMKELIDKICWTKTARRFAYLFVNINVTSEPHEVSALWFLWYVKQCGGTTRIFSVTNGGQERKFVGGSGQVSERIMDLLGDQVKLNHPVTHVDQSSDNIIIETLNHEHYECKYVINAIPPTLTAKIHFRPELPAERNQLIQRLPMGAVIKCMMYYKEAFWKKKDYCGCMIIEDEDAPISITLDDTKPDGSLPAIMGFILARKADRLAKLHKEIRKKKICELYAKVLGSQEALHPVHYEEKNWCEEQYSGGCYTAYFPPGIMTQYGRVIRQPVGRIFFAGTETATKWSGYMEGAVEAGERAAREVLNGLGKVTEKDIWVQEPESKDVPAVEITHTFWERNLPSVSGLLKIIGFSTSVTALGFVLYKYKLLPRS
ASSAY INFO: Irreversible inhibition of human recombinant MAO-A
pKi: −log10 of the molar value.

{"QUERY SMILES": "C#CCN(C)Cc1cccc(C(=O)NC2CC(C)(C)N([O])C(C)(C)C2)c1", "pKi": 3.57}
